molecular target: SARS-CoV-2 RBD (SARS-CoV-2, UniProt P0DTC2); assay: ELISA
EXPERIMENTAL_READOUT: EC50 (ng/mL)
All answers are understood in ng/mL, so give the number only.

Note to self: EC50 recorded for C156 (antibody, V domains shown) VH: QVQLVESGGGVVQPGRSLRLSCAASGFTFSNYGMHWVRQAPGKGLEWVAVISYDGNNKYYADSVKGRFTISRDNSKNTLYLQMNSLRAEDTAVYYCAKDPFPLAVAGTGYFDYWGQGTLVTVSS VL: SYELTQPPSVSVAPGQTARISCGGNNIGSKNVHWYQQKPGQAPVLVVYDDSDRPSGIPERFSGSNSGNTATLTISRVEAGDEADYYCQVWDSSSDPWVFGGGTKLTVL was 3.32
